System: 454973-116-R2-J3-PDC spheroids, viability, % test/control
Test: Anticancer human tumor 454973-116-R2-J3-PDC patient-derived pancreatic carcinoma cell line growth inhibition [GQUAD]
Details: second compound 0.1 µM; first compound 0.1 µM; stronger effect = lower value; spheroids with HUVEC and MSC
REPORTED_ENDPOINT: viability, T/C (%)
Supply the numeric figure in %, leaving out any unit text.

COMPOUND	READING_UNIT	viability, T/C
COc1cc(C2c3cc4c(cc3C(OC3OC5COC(C)OC5C(O)C3O)C3COC(=O)C23)OCO4)cc(OC)c1O (stereo not given) + Cc1[nH]c2ccc(F)cc2c1-c1nc2c3cccnc3c3ncccc3c2[nH]1	%	92.3
CC(C)(O)C1CCC(Nc2ccc3ncc(-c4cccc(C(F)(F)F)c4)n3n2)CC1 (stereo not given) + CN(C)c1ccc(Nc2c3ccc(NC(=O)CCN4CCCC4)cc3nc3cc(NC(=O)CCN4CCCC4)ccc23)cc1	%	90.3
C=CC(=O)N1CCN(c2nc(=O)n(-c3c(C)ccnc3C(C)C)c3nc(-c4c(O)cccc4F)c(F)cc23)C(C)C1 (stereo not given) + Cc1cnc(CNC(=O)c2c(=O)c3ccc(N4CCCN(C)CC4)nc3n3c2sc2ccccc23)cn1	%	80.1
Nc1ccn(C2OC(CO)C(O)C2(F)F)c(=O)n1 (stereo not given) + Cc1cnc(CNC(=O)c2c(=O)c3ccc(N4CCCN(C)CC4)nc3n3c2sc2ccccc23)cn1	%	16.1

# viability, T/C lookup, item C=CC(=O)N1CCN(c2nc(=O)n(-c3c(C)ccnc3C(C)C)c3nc(-c4c(O)cccc4F)c(F)cc23)C(C)C1 (stereo not given) + Cc1[nH]c2ccc(F)cc2c1-c1nc2c3cccnc3c3ncccc3c2[nH]1
102

====

In this section we review reported viability, T/C values for a set of molecules.
Tested on: 454973-116-R2-J3-PDC spheroids, viability, % test/control
Assay: Anticancer human tumor 454973-116-R2-J3-PDC cell line growth inhibition [GQUAD];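 also: spheroids exposed to compounds for seven days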;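 as to viability, T/C: 100% = DMSO vehicle control viability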
Conditions: second compound 3.16 µM; first compound 3.16 µM; stronger effect = lower value; spheroids with HUVEC and MSC
Supply the numeric figure in %, leaving out any unit text.

MOLECULE	viability, T/C, %
CC(C)n1c(=O)n(C)c2cnc3cc(F)c(-c4ccc(OCCCN5CCCCC5)nc4)cc3c21 + CN(C)c1ccc(Nc2c3ccc(NC(=O)CCN4CCCC4)cc3nc3cc(NC(=O)CCN4CCCC4)ccc23)cc1	72.5
Cc1cccc(N(C)C(=O)C2C(O)CCN2c2nc(C)cc(C(F)(F)F)c2C#N)c1 (stereo not drawn) + Cc1[nH]c2ccc(F)cc2c1-c1nc2c3cccnc3c3ncccc3c2[nH]1	103

# input molecule: Nc1ccn(C2OC(CO)C(O)C2(F)F)c(=O)n1 (stereo not drawn) + Cc1[nH]c2ccc(F)cc2c1-c1nc2c3cccnc3c3ncccc3c2[nH]1 ; wanted: its viability, T/C
19.1

====

Test system: 454973-116-R2-J3-PDC spheroids, viability, % test/control
Experiment: Anticancer human tumor 454973-116-R2-J3-PDC cell line growth inhibition [GQUAD];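 also: spheroids exposed to compounds for seven days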;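 as to viability, T/C: 100% = DMSO vehicle control viability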
Details: second compound 0.316 µM; first compound 0.00316 µM; stronger effect = lower value; spheroids with HUVEC and MSC
The molecules listed here are annotated with their viability, T/C.
Please reply with the bare figure in % and do not write the unit itself.

MOLECULE	viability, T/C / %
CCc1c2c(nc3ccc(O)cc13)-c1cc3c(c(=O)n1C2)COC(=O)[C@]3(O)CC + Cc1cnc(CNC(=O)c2c(=O)c3ccc(N4CCCN(C)CC4)nc3n3c2sc2ccccc23)cn1	34.2
Cn1ncnc1[C@H]1c2n[nH]c(=O)c3cc(F)cc(c23)N[C@@H]1c1ccc(F)cc1 + CN(C)c1ccc(Nc2c3ccc(NC(=O)CCN4CCCC4)cc3nc3cc(NC(=O)CCN4CCCC4)ccc23)cc1	97.6
Cn1ncnc1[C@H]1c2n[nH]c(=O)c3cc(F)cc(c23)N[C@@H]1c1ccc(F)cc1 + Cc1[nH]c2ccc(F)cc2c1-c1nc2c3cccnc3c3ncccc3c2[nH]1	99.6
Cn1ncnc1[C@H]1c2n[nH]c(=O)c3cc(F)cc(c23)N[C@@H]1c1ccc(F)cc1 + Cc1cnc(CNC(=O)c2c(=O)c3ccc(N4CCCN(C)CC4)nc3n3c2sc2ccccc23)cn1	70.3

For the next question, use this molecule.
Field request: viability, T/C | item: Cc1[nH]c2ccccc2c1CCNCc1ccc(/C=C/C(=O)NO)cc1 + CN(C)c1ccc(Nc2c3ccc(NC(=O)CCN4CCCC4)cc3nc3cc(NC(=O)CCN4CCCC4)ccc23)cc1
93.3

====

Tested on: 454973-116-R2-J3-PDC spheroids, viability, % test/control
Assay: Anticancer human tumor 454973-116-R2-J3-PDC cell line growth inhibition [GQUAD];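 also: spheroids exposed to compounds for seven days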
Conditions: curve of first compound; second compound 1 µM; spheroids with HUVEC and MSC
Description: DNA G-quadruplex Stabilizer Agents in Combinations in Complex Spheroids A high-throughput screen of multi-cell type tumor spheroids was designed to identify active combinations of DNA G-quadruplex stabilizer agents and targeted small molecules. […] Compounds. […] If the clinical Cmax for an agent had not been determined, the highest concentration tested was 10 microM. […]
pIC50: −log10 of the molar value.
REPORTED_ENDPOINT: pIC50

Please review the entries below; each comes with its answer.
MOLECULE	TARGET_ENTITY	REPORTED_ENDPOINT	EXPERIMENTAL_VALUE
CC(=O)O[C@H]1C(=O)[C@@]2(C)[C@H]([C@H](OC(=O)c3ccccc3)[C@]3(O)C[C@H](OC(=O)[C@H](O)[C@@H](NC(=O)c4ccccc4)c4ccccc4)C(C)=C1C3(C)C)[C@]1(OC(C)=O)CO[C@@H]1C[C@@H]2O + Cc1cnc(CNC(=O)c2c(=O)c3ccc(N4CCCN(C)CC4)nc3n3c2sc2ccccc23)cn1	454973-116-R2-J3-PDC spheroids, viability, % test/control	pIC50	> 7.50
C=CC(=O)N1CCN(c2nc(=O)n(-c3c(C)ccnc3C(C)C)c3nc(-c4c(O)cccc4F)c(F)cc23)C(C)C1 (stereo not drawn) + CN(C)c1ccc(Nc2c3ccc(NC(=O)CCN4CCCC4)cc3nc3cc(NC(=O)CCN4CCCC4)ccc23)cc1	454973-116-R2-J3-PDC spheroids, viability, % test/control	pIC50	< 5.00
C=CC(=O)N1CCN(c2nc(=O)n(-c3c(C)ccnc3C(C)C)c3nc(-c4c(O)cccc4F)c(F)cc23)C(C)C1 (stereo not drawn) + Cc1cnc(CNC(=O)c2c(=O)c3ccc(N4CCCN(C)CC4)nc3n3c2sc2ccccc23)cn1	454973-116-R2-J3-PDC spheroids, viability, % test/control	pIC50	< 5.00

Reported pIC50 for CC1COCCN1c1cc(C2(O)CC3CCC(C2)O3)c2cnn(-c3ccn[nH]3)c2n1 (stereo not drawn) + Cc1cnc(CNC(=O)c2c(=O)c3ccc(N4CCCN(C)CC4)nc3n3c2sc2ccccc23)cn1 : what is it?
> 7.50

I am curious: what pIC50 value has been reported for CC(=O)O[C@H]1C(=O)[C@@]2(C)[C@H]([C@H](OC(=O)c3ccccc3)[C@]3(O)C[C@H](OC(=O)[C@H](O)[C@@H](NC(=O)c4ccccc4)c4ccccc4)C(C)=C1C3(C)C)[C@]1(OC(C)=O)CO[C@@H]1C[C@@H]2O + CN(C)c1ccc(Nc2c3ccc(NC(=O)CCN4CCCC4)cc3nc3cc(NC(=O)CCN4CCCC4)ccc23)cc1 ?
> 7.50

Which pIC50 value is on record for O=c1[nH]cc(F)c(=O)[nH]1 + Cc1cnc(CNC(=O)c2c(=O)c3ccc(N4CCCN(C)CC4)nc3n3c2sc2ccccc23)cn1 ?
< 5.00

So what does the record say about pIC50 for Cc1cccc(N(C)C(=O)C2C(O)CCN2c2nc(C)cc(C(F)(F)F)c2C#N)c1 (stereo not drawn) + Cc1cnc(CNC(=O)c2c(=O)c3ccc(N4CCCN(C)CC4)nc3n3c2sc2ccccc23)cn1 ?
< 5.00

May I ask what pIC50 has been recorded for O=C(c1cc(Cc2n[nH]c(=O)c3ccccc23)ccc1F)N1CCN(C(=O)C2CC2)CC1 + CN(C)c1ccc(Nc2c3ccc(NC(=O)CCN4CCCC4)cc3nc3cc(NC(=O)CCN4CCCC4)ccc23)cc1 ?
< 5.00

====

Tested on: 454973-116-R2-J3-PDC spheroids, viability, % test/control
Assay: Anticancer human tumor 454973-116-R2-J3-PDC cell line growth inhibition [GQUAD];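 also: spheroids exposed to compounds for seven days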;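 as to viability, T/C: 100% = DMSO vehicle control viability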
Details: second compound 0.1 µM; first compound 0.316 µM; stronger effect = lower value; spheroids with HUVEC and MSC
Recorded measurements of viability, T/C, one per entry

Some compounds with known viability, T/C results, for comparison:
COMPOUND	viability, T/C
COc1cc(C2c3cc4c(cc3C(OC3OC5COC(C)OC5C(O)C3O)C3COC(=O)C23)OCO4)cc(OC)c1O (stereo not given) + Cc1cnc(CNC(=O)c2c(=O)c3ccc(N4CCCN(C)CC4)nc3n3c2sc2ccccc23)cn1	59.2%
Cc1cccc(N(C)C(=O)C2C(O)CCN2c2nc(C)cc(C(F)(F)F)c2C#N)c1 (stereo not given) + Cc1[nH]c2ccc(F)cc2c1-c1nc2c3cccnc3c3ncccc3c2[nH]1	103%
CC(C)(O)C1CCC(Nc2ccc3ncc(-c4cccc(C(F)(F)F)c4)n3n2)CC1 (stereo not given) + CN(C)c1ccc(Nc2c3ccc(NC(=O)CCN4CCCC4)cc3nc3cc(NC(=O)CCN4CCCC4)ccc23)cc1	102%
O=C(NO)c1cnc(N2CCN(S(=O)(=O)c3ccc4ccccc4c3)CC2)nc1 + Cc1[nH]c2ccc(F)cc2c1-c1nc2c3cccnc3c3ncccc3c2[nH]1	55.7%

# context switch: different compound, same viability, T/C
Field: viability, T/C (454973-116-R2-J3-PDC spheroids, viability, % test/control). Entry: O=C(c1cc(Cc2n[nH]c(=O)c3ccccc23)ccc1F)N1CCN(C(=O)C2CC2)CC1 + Cc1[nH]c2ccc(F)cc2c1-c1nc2c3cccnc3c3ncccc3c2[nH]1
93.2%

These measurements were taken from PubChem BioAssay AID2060508.
